meta.source: patent US20220185898A1

Listing of entries alongside the reported MFI.
# study-system: T1, mouse Sortilin expressed on 293 / HEK293T cells (mouse, UniProt Q6PHU5 74-825)
# T1 construct: full-length recombinant mouse Sortilin; also called mSort; msSort
# test-method-notes: FACS, 293 cells;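 note: antibodies at 10 µg/ml bound to cells for 1 h on ice, detected with PE-labelled anti-human secondary antibody by flow cytometry, reported as mean fluorescence intensity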
// print number alone

[[record]]
binder = "S-10 (antibody, V domains shown, IgG) VH: QVQLVQSGAEVKKPGASVKVSCKASGYTFTSYGISWVRQAPGQGLEWMGWISAYNGNTNYAQKLQGRVTMTTDTSTSTAYMELRSLRSDDTAVYYCARDPGGYGPTLYYYYGMDVWGQGTTVTVSS VL: EIVMTQSPATLSVSPGERATLSCRASQSVSSNLAWYQQKPGQAPRLLIYGASTRATGIPARFSGSGSGTEFTLTISSLQSEDFAVYYCQQYADWPPITFGGGTKVEIK"
observation_type = "MFI"
reported = 19400

[[record]]
binder = "S-18 (antibody, V domains shown, IgG) VH: QVQLVQSGAEVKKPGSSVKVSCKASGGTFSSYAISWVRQAPGQGLEWMGSIIPIFGTANYAQKFQGRVTITADESTSTAYMELSSLRSEDTAVYYCARDKHGRRGYYYYMDVWGKGTTVTVSS VL: EIVLTQSPATLSLSPGERATLSCRASQSVSSYLAWYQQKPGQAPRLLIYDASNRATGIPARFSGSGSGTDFTLTISSLEPEDFAVYYCQQGANAPPRTFGGGTKVEIK"
observation_type = "MFI"
reported = 21700

[[record]]
binder = "S-15 (antibody, V domains shown, IgG) VH: QVQLVQSGAEVKKPGASVKVSCKASGYTFTSYYMSWVRQAPGQGLEWMGIINPSGGSTSYAQKFQGRVTMTRDTSTSTVYMELSSLRSEDTAVYYCARDPSGIAAAGPASRYYYGMDVWGQGTTVTVSS VL: EIVMTQSPATLSVSPGERATLSCRASQSVSSNLAWYQQKPGQAPRLLIYGASTRATGIPARFSGSGSGTEFTLTISSLQSEDFAVYYCQQARLGPWTFGGGTKVEIK"
observation_type = "MFI"
reported = 17600

[[record]]
binder = "S-74 (antibody, V domains shown, IgG) VH: QVQLQESGPGLVKPSQTLSLTCTVSGGSISSGTYYWSWIRQHPGKGLEWIGYIYYSGSTYYNPSLKSRVTISVDTSKNQFSLKLSSVTAADTAVYYCARGVGRYRVADYWGQGTLVTVSS VL: EIVMTQSPATLSLSPGERATLSCRASQSVSSYLAWYQQKPGQAPRLLIYDSSNRATGIPARFSGSGSGTDFTLTISSLEPEDFAVYYCQQETNMPPITFGGGTKVEIK"
observation_type = "MFI"
reported = 7300

[[record]]
binder = "S-9 (antibody, V domains shown, IgG) VH: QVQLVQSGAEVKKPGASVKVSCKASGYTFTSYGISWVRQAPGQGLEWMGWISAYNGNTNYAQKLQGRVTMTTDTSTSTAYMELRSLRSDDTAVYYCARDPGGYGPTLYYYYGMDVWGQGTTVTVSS VL: EIVMTQSPATLSVSPGERATLSCRASQSVSSNLAWYQQKPGQAPRLLIYGASTRATGIPARFSGSGSGTEFTLTISSLQSEDFAVYYCQQYNIYPLTFGGGTKVEIK"
observation_type = "MFI"
reported = 22200

[[record]]
binder = "S-69 (antibody, V domains shown, IgG) VH: QVQLQESGPGLVKPSQTLSLTCTVSGGSISSGGYYWSWIRQHPGKGLEWIGYIYYSGSTYYNPSLKSRVTISVDTSKNQFSLKLSSVTAADTAVYYCARDRGGTHFGADHYYYGMDVWGQGTMVTVSS VL: EIVMTQSPATLSVSPGERATLSCRASQSVSSSLAWYQQKPGQAPRLLIYGASTRATGIPARFSGSGSGTEFTLTISSLQSEDFAVYYCQQAADWPITFGGGTKVEIK"
observation_type = "MFI"
reported = 1890

[[record]]
binder = "S-58 (antibody, V domains shown, IgG) VH: QVQLQESGPGLVKPSETLSLTCAVSGYSISSGYYWGWIRQPPGKGLEWIGSIYHSGNTYYNPSLKSRVTISVDTSKNQFSLKLSSVTAADTAVYYCARGPPELGKMYFQHWGQGTLVTVSS VL: EIVLTQSPATLSVSPGERATLSCRASQSVSSNLAWYQQKPGQAPRLLIYGASTRATGIPARFSGSGSGTEFTLTISSLQSEDFAVYYCQQDRKGPLTFGGGTKVEIK"
observation_type = "MFI"
reported = 15100


Prompt line: // lookup MFI for S-22 (antibody, V domains shown, IgG) VH: QVQLVQSGAEVKKPGSSVKVSCKASGGTFSSYAISWVRQAPGQGLEWMGGIIPIFGTASYAQKFQGRVTITADESTSTAYMELSSLRSEDTAVYYCARQGRKTGYYYYYGMDVWGQGTTVTVSS VL: DIQMTQSPSTLSASVGDRVTITCRASQSISSWLAWYQQKPGKAPKLLIYKASSLESGVPSRFSGSGSGTEFTLTISSLQPDDFATYYCQQADGHITFGGGTKVEIK
Response line: 23200
